// data source = the supplement of paper PMC10567573

Recorded protein stability index values for a group of variants are listed next.
B1: ZBED2 (parent)
chain: RAGHHPNQYATCRLCGRQVSRGPG

# Variants of: B1
# run-description: protein stability index of a GFP-peptide fusion (GPS, HEK-293T) (PSI 1-6); higher = more stable;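 note: lentivirally expressed fusions sorted by FACS into six bins by GFP to DsRed ratio, PSI derived from sequencing read proportions per bin multiplied by bin number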
# condition-context: c terminus: a fixed tail appended
Give the figure only, with no unit attached.

Solved cases (2 shown):
record-sequence | observation-type | result
RAGHHPNQYATCRLCGRQCSRGPG [V19C] | protein stability index | 3.7
RAGHHPNQYATCRLCGRQVSRGPN [G24N] | protein stability index | 2.42

// protein stability index lookup, key: RAGHHPNQYATCRLCGRQVSRGEG [P23E]
1.76

Now the same for RAGHHSNQYATCRLCGRQVSRGPG [P6S]
1.72

Record: RAGHHPNQYATQRLCGRQVSRGPG [C12Q]
3.12

RAGHHPNQYATCRLCGKQVSRGPG [R17K] , same question.
3.01

Check RAGHHPNQYATCRLCGSQVSRGPG [R17S] too.
1.79
